Cited source: ChEMBL document CHEMBL1909046

target: Vasoactive intestinal polypeptide receptor 1 (Homo sapiens, UniProt P32241); format: cell membranes, Membrane; settings: ht-29; further: in other assays of this panel Not Active means under 50% inhibition at 10 µM
Sequence (P32241 whole entry): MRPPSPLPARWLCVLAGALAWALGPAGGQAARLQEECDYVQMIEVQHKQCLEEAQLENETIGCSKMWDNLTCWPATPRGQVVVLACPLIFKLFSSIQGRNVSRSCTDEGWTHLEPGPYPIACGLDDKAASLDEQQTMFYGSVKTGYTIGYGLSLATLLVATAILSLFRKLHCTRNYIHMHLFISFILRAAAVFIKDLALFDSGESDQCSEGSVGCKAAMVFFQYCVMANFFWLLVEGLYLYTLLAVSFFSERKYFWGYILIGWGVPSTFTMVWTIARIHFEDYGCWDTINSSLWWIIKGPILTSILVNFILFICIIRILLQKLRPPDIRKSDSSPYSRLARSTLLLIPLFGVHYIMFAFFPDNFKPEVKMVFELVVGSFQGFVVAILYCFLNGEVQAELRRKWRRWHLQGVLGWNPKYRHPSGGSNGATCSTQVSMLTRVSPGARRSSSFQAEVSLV
property_name: IC50

• C[C@@H]1C[C@H]2[C@@H]3CCC4=CC(=O)C=C[C@]4(C)[C@@]3(F)[C@@H](O)C[C@]2(C)[C@@]1(O)C(=O)CO [DEXAMETHASONE] = Not Active
• C#C[C@]1(OC(C)=O)CC[C@H]2[C@@H]3CCC4=C[C@@H](OC(C)=O)CC[C@@H]4[C@H]3CC[C@@]21C [ETHYNODIOL DIACETATE] = Not Active
• CS(=O)(=O)c1ccc([C@@H](O)[C@@H](CO)NC(=O)C(Cl)Cl)cc1 [THIAMPHENICOL] = Not Active
